- Test system: human osteosarcoma cell line SJSA-1
- procedure.text: Inhibition of proliferation of human osteosarcoma cell line SJSA-1 (DAPI staining, In Cell Analyzer)
- recorded.conditions: Homo sapiens, SJSA-1, 72 h, read-out: IC50 (nM), inhibitory activity on proliferation of human osteosarcoma cell line SJSA-1, SJSA-1, incubated 72 h
# label = label 1 if IC50 < 60 nM else label 0

Please state whether IC50 is below 60 nM for COc1nc(OC(C)C)ncc1-c1nc2c(n1C(C)C)[C@@]1(C(=O)Nc3cc(Cl)ccc31)N(c1cccc(Cl)c1)C2=O
label 0

Does the reported IC50 of COc1cc(N)ccc1-c1nc2c(n1C(C)C)[C@]1(C(=O)Nc3cc(Cl)ccc31)N(c1cc(Cl)ccc1C)C2=O stay below 60 nM?
label 0

For CCOc1cc(OC)c(-c2nc3c(n2C(C)C)[C@@]2(C(=O)Nc4cc(Cl)ccc42)N(c2cc(Cl)ccc2F)C3=O)cn1 , is the recorded IC50 below the cut-off of 60 nM?
label 1

Does the reported IC50 of the following compound sit strictly below 60 nM? COc1cc(-c2nc3c(n2C(C)C)[C@]2(C(=O)Nc4cc(Cl)ccc42)N(c2cc(Cl)ccc2C)C3=O)c(OC)cn1
label 0

Please check: IC50 for COc1cc(-c2nc3c(n2C(C)C)[C@@]2(C(=O)Nc4cc(Cl)ccc42)N(c2cc(Cl)ccc2C)C3=O)c(OC)cn1 , strictly under 60 nM or not?
label 1

Please check: IC50 for COc1ncc(-c2nc3c(n2C(C)C)[C@@]2(C(=O)Nc4cc(Cl)ccc42)N(c2cccc(C)c2)C3=O)c(OC)n1 , strictly under 60 nM or not?
label 0

* * *

- procedure.text: Pharmacokinetics in ICR mice after intravenous and intragastric administration
- Assay type: in vivo
- recorded.conditions: male, ICR, mouse, plasma, iv, 2 mg/kg, ICR mice, IV 2 mg/kg, individual animals 301-303; read-out: AUC(0-t)
result.type: AUC(0-t) (ng·h/mL)
Reply with just the number (in ng·h/mL).

Fill in: AUC(0-t) of COc1nc(C2CC2)ncc1-c1nc2c(n1C(C)C)[C@@]1(C(=O)Nc3cc(Cl)ccc31)N(c1cc(Cl)cnc1C)C2=O [Example S-159] is ___
3600

State the recorded AUC(0-t) for this entry: COc1nc(N(C)C)ncc1-c1nc2c(n1C(C)C)[C@@]1(C(=O)Nc3cc(Cl)ccc31)N(c1cc(Cl)cnc1C)C2=O [Example S-135]
7270

May I ask what AUC(0-t) has been recorded for CCOc1ncc(-c2nc3c(n2C(C)C)[C@@]2(C(=O)Nc4cc(Cl)ccc42)N(c2cc(Cl)cnc2C)C3=O)c(OC)n1 [Example S-134] ?
5020

Tell me the measured AUC(0-t) of COc1cc(OC(C)C)ncc1-c1nc2c(n1C(C)C)[C@@]1(C(=O)Nc3cc(Cl)ccc31)N(c1cc(Cl)cnc1C)C2=O [Example S-137] , please.
8960

Reported AUC(0-t) for COc1cc(C(F)(F)F)ncc1-c1nc2c(n1C(C)C)[C@@]1(C(=O)Nc3cc(Cl)ccc31)N(c1cc(Cl)ccc1C)C2=O [Example S-138] : what is it?
6060

* * *

- procedure.text: Pharmacokinetics in ICR mice after intravenous and intragastric administration
- Type: in vivo
- recorded.conditions: male, ICR, mouse, plasma, iv, 2 mg/kg, IV 2 mg/kg, ICR mice, Mean; read-out: MRT(0-∞)
- Procedure: Experimental Example 3 Determination of the Pharmacokinetics of the Mdm2 Inhibitors of the Present Invention in Mice […] The collected plasma was stored at −80° C. before analysis. The plasma sample was analyzed by LC-MS/MS, and the sample was pretreated by protein precipitation method. […] The lowest quantification limit was 1 ng/mL. […]
Field: MRT inf. Provide a value for each of the compounds that follow.
Write down the numeric answer in h and omit the unit.

Please look up its MRT inf: COc1cc(N(C)C)ccc1-c1nc2c(n1C(C)C)[C@@]1(C(=O)Nc3cc(Cl)ccc31)N(c1cc(Cl)ccc1C)C2=O [Example S-23]
2.07

Dear colleague, I am looking for the recorded MRT inf of the following compound: COc1ncc(-c2nc3c(n2C(C)C)[C@@]2(C(=O)Nc4cc(Cl)ccc42)N(c2cc(Cl)ccc2C)C3=O)c(OC)n1 [Example S-2]
1.56

MRT inf for COc1cc(OC)c(-c2nc3c(n2C(C)C)[C@@]2(C(=O)Nc4cc(Cl)ccc42)N(c2cc(Cl)ccc2C)C3=O)cn1 [Example S-11] ?
1.95

Reported MRT inf for COc1ncc(-c2nc3c(n2C(C)C)[C@H](c2ccc(Cl)cc2)N(c2cc(Cl)cn(C)c2=O)C3=O)c(OC)n1 [HDM201, reference compound] : what is it?
0.9

Recorded MRT inf for COc1ccc(-c2nc3c(n2C(C)C)[C@@]2(C(=O)Nc4cc(Cl)ccc42)N(c2cc(Cl)ccc2C)C3=O)c(OC)c1 [Example S-9] , please?
1.73

Sample COc1ncc(-c2nc3c(n2C(C)C)[C@@]2(C(=O)Nc4cc(Cl)ccc42)N(c2cccc(Cl)c2)C3=O)c(OC)n1 [Example S-1] — what was its MRT inf?
1.45
